Data origin: PubChem BioAssay AID1851

Target: Cytochrome P450 2D6 (Homo sapiens)
Experiment: Cytochrome panel assay with activity outcomes; also: % is scaled to controls: 0 for no effect and ±100 for the full control effect
Conditions: recombinant CYP, pro-luciferin dealkylation, luminescence, p450-cyp2d6; series mostly up to 57.1 µM
In all, about 16,000 compounds went through this assay and about 2,600 (16%) were called active. Roughly 20% stayed inconclusive and do not appear here. The full list was thinned out, with actives kept by preference.
measured_property: activity, negative = inhibition

Guide cases for activity, negative = inhibition, answers given:
compound: C[C@@H]1CC[C@@H]2N(C1)C[C@H]1[C@@](O)([C@H](O)C[C@]3(O)[C@H]4CC[C@H]5[C@]6(O)O[C@]4(C[C@]13O)[C@@]5(C)CC[C@@H]6O)[C@@]2(C)O
target_of_assay: Cytochrome P450 2D6 (Homo sapiens)
activity, negative = inhibition: 10.1% [at 11.4 µM] (inactive)

compound: C[C@@H]1OC=C2[C@@H](O)[C@H]3O[C@H]3C(=O)[C@@]23[C@H]1[C@H]1C2=C([C@@H](O)[C@H]4O[C@@H]4C2=O)[C@@H]3O[C@@H]1C
target_of_assay: Cytochrome P450 2D6 (Homo sapiens)
activity, negative = inhibition: 1.81% [at 11.4 µM] (inactive)

compound: N[C@H](Cc1ccc2oc3cc(=O)c4ccccc4c-3nc2c1)C(=O)O
target_of_assay: Cytochrome P450 2D6 (Homo sapiens)
activity, negative = inhibition: -14.6% [at 11.4 µM] (inactive)

compound: COc1cc2c(cc1OC)[C@@]13CCN4C=C5CCO[C@H]6CC(=O)N2[C@@H]1[C@@H]6[C@H]5C[C@H]43
target_of_assay: Cytochrome P450 2D6 (Homo sapiens)
activity, negative = inhibition: 9.01% [at 11.4 µM] (inactive)

compound: Nc1nc(N)c(Cn2ccnc2)c(=O)[nH]1
target_of_assay: Cytochrome P450 2D6 (Homo sapiens)
activity, negative = inhibition: -11.4% [at 11.4 µM] (inactive)

compound: C[C@]1(O)CC[C@H]2[C@@H]3[C@@H](O)CC4=CC(=O)CC[C@@]4(C)[C@H]3CC[C@]21C
target_of_assay: Cytochrome P450 2D6 (Homo sapiens)
activity, negative = inhibition: 10.5% [at 11.4 µM] (inactive)

Please turn your attention to the following entry.
Qu. Looking for the measured activity, negative = inhibition of NS(=O)(=O)C[C-]1C=C[CH]([Sb-]([Cl])([Cl])([Cl])([Cl])[Cl])C=C1.c1ccncc1 (configuration not stated) , can you help?
Ans. 7.69% [at 11.4 µM] (inactive)
